- Target: WT STING (Homo sapiens, UniProt Q86WV6, H232R)
- Sequence (Q86WV6 whole entry H232R): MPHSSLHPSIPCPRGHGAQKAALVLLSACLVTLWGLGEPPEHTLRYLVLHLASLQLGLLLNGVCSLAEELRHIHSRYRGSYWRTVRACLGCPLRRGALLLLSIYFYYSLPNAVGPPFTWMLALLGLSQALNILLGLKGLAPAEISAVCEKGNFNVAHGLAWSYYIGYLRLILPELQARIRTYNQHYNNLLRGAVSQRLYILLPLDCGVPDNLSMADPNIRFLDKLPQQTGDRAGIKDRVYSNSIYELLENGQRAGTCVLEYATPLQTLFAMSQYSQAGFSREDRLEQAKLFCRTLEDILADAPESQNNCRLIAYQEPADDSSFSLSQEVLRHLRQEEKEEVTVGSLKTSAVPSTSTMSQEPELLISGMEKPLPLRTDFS
- Measurement description: Digitonin assay using 293T wtSTING-FL reporter cells
- Format: cell-based
- Recorded conditions: 293T wtSTING-FL cells; 30 minutes in Digitonin buffer, then 5 hours; ISRE firefly luciferase reporter
pEC50: −log10 of the molar value.
Result type: pEC50

Guide cases for pEC50, answers given:
>>> recorded_value("Nc1ncnc2c1ncn2[C@@H]1O[C@@H]2COP(=O)(O)O[C@H]3[C@@H](O)[C@H](n4cnc5c(N)ncnc54)O[C@@H]3COP(=O)(O)O[C@H]2[C@H]1O [3′3′c-di-AMP, 3′3′-c-di-AMP, reference compound]")
6.52
>>> recorded_value("Nc1ncnc2c1ncn2[C@@H]1O[C@@H]2/C=C/P(=O)(O)O[C@H]3[C@@H](F)[C@H](n4cnc5c(N)ncnc54)O[C@@H]3COP(=O)(O)O[C@H]2[C@H]1F")
7.52

(a) Nc1ncnc2c1ncn2[C@@H]1O[C@@H]2COP(=O)(O)O[C@H]3C[C@H](n4cnc5c(N)ncnc54)O[C@@H]3/C=C/P(=O)(O)O[C@H]2[C@H]1F
(b) Nc1nc2c(ncn2[C@H]2C[C@@H]3OP(=O)(O)/C=C/[C@H]4O[C@@H](n5cnc6c(N)ncnc65)[C@H](F)[C@@H]4OP(=O)(O)OC[C@H]3O2)c(=O)[nH]1
Hi, I'm comparing a with b and wondering which one has the bigger number for pEC50. Any idea? // output: label of the selected item
b

====

- Target: WT STING (Homo sapiens, UniProt Q86WV6, H232R)
- Measurement description: 293T WT STING standard reporter assay
- Type: cell-based
- Recorded conditions: 293T wtSTING-FL cells; 7 hours with compound, no digitonin; ISRE firefly luciferase reporter
Result type: EC50 (µM)

Here is how some compounds turned out for EC50.
>>> recorded_value("CC(C)OC(=O)OCOP1(=O)/C=C/[C@H]2O[C@@H](n3cnc4c(N)ncnc43)[C@H](F)[C@@H]2OP(=O)(OCOC(=O)OC(C)C)OC[C@H]2O[C@@H](n3cnc4c(N)ncnc43)[C@H](F)[C@@H]2O1 (some centres unmarked) [Compound 81a]")
9.5
>>> recorded_value("Nc1ncnc2c1ncn2[C@@H]1O[C@@H]2/C=C/P(=O)(O)O[C@H]3[C@@H](F)[C@H](n4cnc5c(N)ncnc54)O[C@@H]3COP(=O)(O)O[C@H]2[C@H]1F [Compound 53]")
10.1

(A) CC1(C(=O)OCOP2(=O)/C=C/[C@H]3O[C@@H](n4cnc5c(N)ncnc54)[C@H](F)[C@@H]3OP(=O)(OCOC(=O)C3(C)CCCCC3)OC[C@H]3O[C@@H](n4cnc5c(N)ncnc54)[C@H](F)[C@@H]3O2)CCCCC1 (single isomer, unassigned) [Compound 82a]
(B) CC(C)(C)C(=O)OCOP1(=O)/C=C/[C@H]2O[C@@H](n3cnc4c(N)ncnc43)C[C@@H]2OP(=O)(OCOC(=O)C(C)(C)C)OC[C@H]2O[C@@H](n3cnc4c(N)ncnc43)[C@H](F)[C@@H]2O1 (single isomer, unassigned) [Compound 87a]
EC50 comparison. Which is larger, A or B ? Mark your answer with the label of the selected entry.
B
(B: 12.1 µM, A: 0.2 µM)

====

- System: peripheral blood mononuclear cell (PBMC)
- Measurement description: Peripheral blood mononuclear cell assay
- Format: cell-based
- Recorded conditions: PBMC, 1h with compound, washed, 15 hour incubation; TNF-α level in medium; read-out: PBMC EC50 TNF-α
Result type: EC50 (nM)
Just the number please, in nM, no unit attached.

Example compounds with recorded EC50:
>>> recorded_value("CCCCCCCCCCCC(=O)OCOP1(=O)/C=C/[C@H]2O[C@@H](n3cnc4c(N)ncnc43)[C@H](F)[C@@H]2OP(=O)(OCOC(=O)CCCCCCCCCCC)OC[C@H]2O[C@@H](n3cnc4c(N)ncnc43)[C@H](F)[C@@H]2O1 (single isomer, unassigned) [Compound 85a]")
20
>>> recorded_value("Nc1ncnc2c1ncn2[C@@H]1O[C@@H]2/C=C/P(=O)(O)O[C@H]3[C@@H](F)[C@H](n4cnc5c(N)ncnc54)O[C@@H]3COP(=O)(O)O[C@H]2[C@H]1F [Compound 53]")
54000
>>> recorded_value("CC(C)(C)C(=O)OCOP1(=O)/C=C/[C@H]2O[C@@H](n3cnc4c(N)ncnc43)[C@H](F)[C@@H]2OP(=O)(OCOC(=O)C(C)(C)C)OC[C@H]2O[C@@H](n3cnc4c(N)ncnc43)C[C@@H]2O1 (stereo partly shown) [Compound 86]")
800

Let's switch to this compound now.
Item under review: CC1(C(=O)OCOP2(=O)/C=C/[C@H]3O[C@@H](n4cnc5c(N)ncnc54)[C@H](F)[C@@H]3OP(=O)(OCOC(=O)C3(C)CCCCC3)OC[C@H]3O[C@@H](n4cnc5c(N)ncnc54)[C@H](F)[C@@H]3O2)CCCCC1 (single isomer, unassigned) [Compound 82c] . Reported EC50?
60

====

- Target: WT STING (Homo sapiens, UniProt Q86WV6, H232R)
- Measurement description: 293T WT STING standard reporter assay
- Format: cell-based
- Recorded conditions: 293T wtSTING-FL cells; 7 hours with compound, no digitonin; ISRE firefly luciferase reporter
pEC50: −log10 of the molar value.
Result type: pEC50

// known answers, use as guide
>>> recorded_value("CCCCCCCCCCCC(=O)OCOP1(=O)/C=C/[C@H]2O[C@@H](n3cnc4c(N)ncnc43)[C@H](F)[C@@H]2OP(=O)(OCOC(=O)CCCCCCCCCCC)OC[C@H]2O[C@@H](n3cnc4c(N)ncnc43)[C@H](F)[C@@H]2O1 (single isomer, unassigned) [Compound 85b]")
8.52
>>> recorded_value("CCCCCCCC(=O)OCOP1(=O)/C=C/[C@H]2O[C@@H](n3cnc4c(N)ncnc43)[C@H](F)[C@@H]2OP(=O)(OCOC(=O)CCCCCCC)OC[C@H]2O[C@@H](n3cnc4c(N)ncnc43)[C@H](F)[C@@H]2O1 (single isomer, unassigned) [Compound 83a]")
7.64
>>> recorded_value("CC(C)(C)C(=O)OCOP1(=O)/C=C/[C@H]2O[C@@H](n3cnc4c(N)ncnc43)[C@H](F)[C@@H]2OP(=O)(OCOC(=O)C(C)(C)C)OC[C@H]2O[C@@H](n3cnc4c(N)ncnc43)[C@H](F)[C@@H]2O1 (single isomer, unassigned) [Compound 80c]")
7.92
>>> recorded_value("CCC(C)(C)C(=O)OCOP1(=O)/C=C/[C@H]2O[C@@H](n3cnc4c(N)ncnc43)[C@H](F)[C@@H]2OP(=O)(OCOC(=O)C(C)(C)CC)OC[C@H]2O[C@@H](n3cnc4c(N)ncnc43)[C@H](F)[C@@H]2O1 (single isomer, unassigned) [Compound 84b]")
8.00

(P) CCCCCCCCCCCC(=O)OCOP1(=O)/C=C/[C@H]2O[C@@H](n3cnc4c(N)ncnc43)[C@H](F)[C@@H]2OP(=O)(OCOC(=O)CCCCCCCCCCC)OC[C@H]2O[C@@H](n3cnc4c(N)ncnc43)[C@H](F)[C@@H]2O1 (single isomer, unassigned) [Compound 85a]
(Q) CC1(C(=O)OCOP2(=O)/C=C/[C@H]3O[C@@H](n4cnc5c(N)ncnc54)[C@H](F)[C@@H]3OP(=O)(OCOC(=O)C3(C)CCCCC3)OC[C@H]3O[C@@H](n4cnc5c(N)ncnc54)[C@H](F)[C@@H]3O2)CCCCC1 (single isomer, unassigned) [Compound 82c]
Given P and Q , report the one with the higher recorded pEC50. Respond with the label that goes with your answer.
P
(P: 9.40, Q: 7.82)

====

- Target: AQ STING (G230A-R293Q) (Homo sapiens, UniProt Q86WV6, G230A/H232R/R293Q)
- Construct: 8xHis (N, cleaved yes); SUMO (N, cleaved yes); made in house; host or cells: E. coli Rosetta-gami B (DE3)
- Sequence (Q86WV6 140-343 G230A/H232R/R293Q): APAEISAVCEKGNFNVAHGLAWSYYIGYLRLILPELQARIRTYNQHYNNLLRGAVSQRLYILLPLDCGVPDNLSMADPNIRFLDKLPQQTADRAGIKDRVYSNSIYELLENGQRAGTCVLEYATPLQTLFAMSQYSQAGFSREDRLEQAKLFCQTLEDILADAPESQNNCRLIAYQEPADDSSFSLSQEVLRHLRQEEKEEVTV
- Measurement description: Differential Scanning Fluorimetry with AQ STING
- Assay type: binding
- Recorded conditions: thermal shift vs apoprotein; 150 µM CDN; truncated human AQ STING 0.1 mg/ml; read-out: DSF ΔTm AQ STING
Result type: ΔTm at 150 µM (°C)

>>> recorded_value("CSc1ncnc2c1ncn2[C@@H]1O[C@@H]2COP(=O)(O)O[C@H]3[C@@H](O)[C@H](n4cnc5c(=O)[nH]c(N)nc54)O[C@@H]3/C=C\\P(=O)(O)O[C@H]2[C@H]1O (stereo in doubt) [Compound 70]")
1.1

(a) Nc1nc2c(ncn2[C@@H]2O[C@@H]3/C=C\P(=O)(O)O[C@H]4C[C@H](n5cnc6c(N)nc(F)nc65)O[C@@H]4COP(=O)(O)O[C@H]3[C@H]2O)c(=O)[nH]1 [Compound 66]
(b) Nc1nc2c(ncn2[C@@H]2O[C@@H]3/C=C/P(=O)(O)O[C@H]4[C@@H](F)[C@H](n5cnc6c(N)ncnc65)O[C@@H]4COP(=O)(O)O[C@H]3[C@H]2F)c(=O)[nH]1 [Compound 54]
Lower value of ΔTm at 150 µM belongs to which: a or b ? In your reply, give the label of the chosen option.
a
(a: 1.7 °C, b: 15 °C)

The values you see were collected from patent US20230303613A1.
